Molecular target: CB1R (Rattus norvegicus, UniProt P20272)
Construct: from tissue; host or cells: rat cerebellum (membranes)
Sequence (P20272 whole entry): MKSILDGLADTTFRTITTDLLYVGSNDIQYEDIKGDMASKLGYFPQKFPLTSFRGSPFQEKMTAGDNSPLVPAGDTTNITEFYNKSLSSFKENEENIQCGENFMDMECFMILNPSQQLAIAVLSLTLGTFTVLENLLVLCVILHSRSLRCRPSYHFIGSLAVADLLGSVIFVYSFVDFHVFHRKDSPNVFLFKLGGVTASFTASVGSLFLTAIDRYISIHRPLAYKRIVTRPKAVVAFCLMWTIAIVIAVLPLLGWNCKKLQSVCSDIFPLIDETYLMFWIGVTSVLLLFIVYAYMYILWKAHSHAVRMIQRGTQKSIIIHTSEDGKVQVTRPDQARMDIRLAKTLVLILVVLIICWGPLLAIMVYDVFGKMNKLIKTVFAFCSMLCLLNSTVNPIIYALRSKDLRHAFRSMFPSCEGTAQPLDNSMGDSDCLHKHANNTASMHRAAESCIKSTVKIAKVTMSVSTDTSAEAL
Experiment: CB1R radioligand binding assay versus [3H]-WIN552122 in rat cerebellar membranes
Conditions: read-out: K i (nM) CB1R versus [^3H]-WIN552122, radioligand [3H]-WIN552122, mean ± standard error, three independent experiments in triplicate
Source text: Radioligand Binding Assays. […] Competitive radioligand binding assays have been used to evaluate the affinity of selected synthetized triazoles to CB1R in rat cerebellar membranes.
measure: Ki
Express the reported value numerically, then name its unit.

Record CCCCCCc1nc(-c2ccc(Cl)cc2)n(-c2ccc(Cl)cc2Cl)n1 [LH21, reference compound] , field Ki: 748 nM

====

measure: melting point

Record CCCCCCCc1nc(-c2ccncc2)n(Cc2ccc(Cl)cc2Cl)n1 [Compound 15b] , field melting point: 104 to 105 °C

Record CCCCCCCc1nc(-c2cc[n+](C)cc2)nn1Cc1ccc(Cl)cc1Cl.[I-] [Compound 18] , field melting point: 136 to 138 °C

Record CCCCCCCc1nc(-c2ccccc2)n(Cc2ccc(Cl)cc2Cl)n1 [Compound 9b] , field melting point: 70 to 73 °C

Record CCCCCCCc1nc(-c2ccc(Cl)cc2)n(Cc2ccc(Cl)cc2Cl)n1 [Compound 12b] , field melting point: 97 to 99 °C

Entry source: paper PMC4834188
